biological target: PI3K (p110α) (Homo sapiens); assay: In vitro enzyme activity assay, PI3K (p110α) kinase, Method II (ADP-Glo assay); type: biochemical; set-up: purchased Millipore 14-602-K; conditions: read-out: PI3K (p110α) enzyme activity_IC50
Sequence (P42336 whole entry): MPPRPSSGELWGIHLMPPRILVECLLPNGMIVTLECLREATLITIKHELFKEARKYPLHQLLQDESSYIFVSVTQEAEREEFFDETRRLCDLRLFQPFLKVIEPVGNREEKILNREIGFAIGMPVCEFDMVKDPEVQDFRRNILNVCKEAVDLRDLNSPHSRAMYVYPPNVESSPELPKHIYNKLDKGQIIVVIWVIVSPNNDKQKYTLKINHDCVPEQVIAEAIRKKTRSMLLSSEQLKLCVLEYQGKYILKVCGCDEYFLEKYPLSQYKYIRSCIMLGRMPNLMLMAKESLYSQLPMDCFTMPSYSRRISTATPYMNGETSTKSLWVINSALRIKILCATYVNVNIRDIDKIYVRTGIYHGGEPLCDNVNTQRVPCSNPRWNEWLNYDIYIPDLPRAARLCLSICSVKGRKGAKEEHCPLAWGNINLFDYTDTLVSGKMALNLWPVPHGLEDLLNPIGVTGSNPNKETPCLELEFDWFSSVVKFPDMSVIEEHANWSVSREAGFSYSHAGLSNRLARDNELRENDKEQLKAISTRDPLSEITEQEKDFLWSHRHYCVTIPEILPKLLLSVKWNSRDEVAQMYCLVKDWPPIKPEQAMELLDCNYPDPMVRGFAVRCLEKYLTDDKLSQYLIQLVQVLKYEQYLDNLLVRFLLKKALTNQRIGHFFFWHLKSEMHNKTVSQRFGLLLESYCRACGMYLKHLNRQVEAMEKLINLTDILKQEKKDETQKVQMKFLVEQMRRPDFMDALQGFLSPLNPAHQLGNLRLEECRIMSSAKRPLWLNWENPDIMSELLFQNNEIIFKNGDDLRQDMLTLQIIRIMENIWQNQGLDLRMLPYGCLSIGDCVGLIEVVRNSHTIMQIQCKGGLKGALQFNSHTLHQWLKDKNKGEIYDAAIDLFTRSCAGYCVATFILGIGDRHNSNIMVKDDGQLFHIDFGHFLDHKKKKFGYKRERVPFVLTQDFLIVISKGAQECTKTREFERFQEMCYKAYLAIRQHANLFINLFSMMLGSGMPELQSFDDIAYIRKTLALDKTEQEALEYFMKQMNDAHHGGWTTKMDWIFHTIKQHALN
Sequence (P27986 whole entry partner): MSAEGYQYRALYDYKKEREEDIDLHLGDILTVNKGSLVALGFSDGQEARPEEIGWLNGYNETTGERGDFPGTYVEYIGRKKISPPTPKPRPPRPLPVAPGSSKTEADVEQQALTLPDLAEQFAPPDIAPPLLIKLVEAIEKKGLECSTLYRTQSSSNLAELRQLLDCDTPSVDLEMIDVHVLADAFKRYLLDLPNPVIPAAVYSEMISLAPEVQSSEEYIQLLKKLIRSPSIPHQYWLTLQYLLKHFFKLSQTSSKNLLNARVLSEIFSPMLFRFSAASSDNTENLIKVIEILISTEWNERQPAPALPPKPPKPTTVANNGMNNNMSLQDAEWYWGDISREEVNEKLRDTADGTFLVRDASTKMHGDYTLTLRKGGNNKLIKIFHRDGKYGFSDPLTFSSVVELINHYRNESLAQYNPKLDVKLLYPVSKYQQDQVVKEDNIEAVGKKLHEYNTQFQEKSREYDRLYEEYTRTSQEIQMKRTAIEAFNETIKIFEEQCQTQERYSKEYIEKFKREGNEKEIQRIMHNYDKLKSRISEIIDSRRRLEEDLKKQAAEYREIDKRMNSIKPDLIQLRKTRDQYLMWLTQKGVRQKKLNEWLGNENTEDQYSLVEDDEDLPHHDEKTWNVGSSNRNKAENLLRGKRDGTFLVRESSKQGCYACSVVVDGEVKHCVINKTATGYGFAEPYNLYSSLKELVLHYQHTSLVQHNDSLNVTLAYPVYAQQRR
pIC50: −log10 of the molar value.
MEASUREMENT TYPE: pIC50

COc1ncc(-c2ccc3ncc(OCCN4CCN(C)CC4)c(=O)n3c2)cc1NS(=O)(=O)c1sc(C)nc1C = ≥ 9.00
COc1ncc(-c2ccc3ncc(OCC4CCNC4)c(=O)n3c2)cc1NS(=O)(=O)c1ccc(F)cc1Cl (stereo not drawn) = 7.30 to 9.00
COc1ncc(-c2ccc3ncc(OCCN4CCOCC4)c(=O)n3c2)cc1NS(=O)(=O)c1c(Cl)cccc1Cl = ≥ 9.00
COc1ncc(-c2ccc3ncc(OCCN4CCN(S(C)(=O)=O)CC4)c(=O)n3c2)cc1NS(=O)(=O)c1ccc(F)cc1Cl = ≥ 9.00
COc1ncc(-c2ccc3ncc(OCCN(CCO)CCO)c(=O)n3c2)cc1NS(=O)(=O)c1ccc(F)cc1Cl = ≥ 9.00

Exercise: // pIC50 lookup, key: COc1ncc(-c2ccc3ncc(OC4CCN(C)C4)c(=O)n3c2)cc1NS(=O)(=O)c1ccc(F)cc1Cl (stereo not drawn)
Solution: 7.30 to 9.00

Exercise: // pIC50 lookup, key: COc1ncc(-c2ccc3ncc(CN(C)C)c(=O)n3c2)cc1NS(=O)(=O)c1sc(C)nc1C
Solution: 7.30 to 9.00

Exercise: // pIC50 lookup, key: COc1ncc(-c2ccc3ncc(OCCN(C)C)c(=O)n3c2)cc1NS(=O)(=O)c1ccc(F)cc1Cl
Solution: ≥ 9.00

These data points were gathered from patent US9856256B2.
